Each entry below lists one item and its recorded Ki value.
# experimental_system: histamine receptor, H1 (Bos taurus, UniProt P30546)
# Construct: from tissue; host or cells: bovine cerebellar membranes (per earlier reading)
# Sequence (P30546 whole entry): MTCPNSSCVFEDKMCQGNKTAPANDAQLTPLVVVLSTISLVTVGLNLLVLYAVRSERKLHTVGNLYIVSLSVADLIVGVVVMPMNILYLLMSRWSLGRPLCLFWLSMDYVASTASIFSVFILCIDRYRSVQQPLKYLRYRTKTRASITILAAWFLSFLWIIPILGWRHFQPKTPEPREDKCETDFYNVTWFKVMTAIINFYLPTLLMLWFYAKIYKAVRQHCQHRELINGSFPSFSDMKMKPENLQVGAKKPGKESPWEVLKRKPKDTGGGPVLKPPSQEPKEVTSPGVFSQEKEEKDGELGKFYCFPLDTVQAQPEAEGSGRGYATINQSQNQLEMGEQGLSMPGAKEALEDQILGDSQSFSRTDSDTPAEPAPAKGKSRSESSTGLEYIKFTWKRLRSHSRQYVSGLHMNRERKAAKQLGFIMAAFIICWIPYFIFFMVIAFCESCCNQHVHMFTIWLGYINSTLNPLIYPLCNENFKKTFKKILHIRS
# method_notes: H1 binding assay, displacement of [3H]Pyrilamine, bovine cerebellar membranes
# particulars: Table 6; read-out: Receptor Binding Data (Ki nM) H1
Structures can show the parent of a compound that is named as a salt.
Write the number in nM without appending the unit.

Worked examples, 4 compounds total:
{"compound": "CC(C)(CCN1CCC(=C2c3ccccc3COc3ccccc32)CC1)C(=O)O [Compound 75a]", "output_unit": "nM", "Ki": 47.9}
{"compound": "O=C(O)CCCN1CCC(=C2c3ccccc3COc3ccccc32)CC1 [Compound 73a]", "output_unit": "nM", "Ki": 42.8}
{"compound": "O=C(O)CN1CCC(=C2c3ccccc3COc3ccccc32)CC1", "output_unit": "nM", "Ki": 55.1}
{"compound": "O=C(O)CCN1CCC(OC(c2ccccc2)c2ccccc2)CC1 [Compound 6a, hydrochloride]", "output_unit": "nM", "Ki": 56.1}

Kindly review the next compound as well.
Quick one: Ki for CC(C)(CN1CCC(=C2c3ccccc3COc3ccccc32)CC1)C(=O)O [Compound 74a] ?
109

Cited source for all entries: patent US20040142972A1
